The measured values listed here are drawn from ChEMBL document CHEMBL1154162.

SYSTEM NAME: hERG (KCNH2) (Homo sapiens, UniProt Q12809)
Sequence (Q12809 whole entry): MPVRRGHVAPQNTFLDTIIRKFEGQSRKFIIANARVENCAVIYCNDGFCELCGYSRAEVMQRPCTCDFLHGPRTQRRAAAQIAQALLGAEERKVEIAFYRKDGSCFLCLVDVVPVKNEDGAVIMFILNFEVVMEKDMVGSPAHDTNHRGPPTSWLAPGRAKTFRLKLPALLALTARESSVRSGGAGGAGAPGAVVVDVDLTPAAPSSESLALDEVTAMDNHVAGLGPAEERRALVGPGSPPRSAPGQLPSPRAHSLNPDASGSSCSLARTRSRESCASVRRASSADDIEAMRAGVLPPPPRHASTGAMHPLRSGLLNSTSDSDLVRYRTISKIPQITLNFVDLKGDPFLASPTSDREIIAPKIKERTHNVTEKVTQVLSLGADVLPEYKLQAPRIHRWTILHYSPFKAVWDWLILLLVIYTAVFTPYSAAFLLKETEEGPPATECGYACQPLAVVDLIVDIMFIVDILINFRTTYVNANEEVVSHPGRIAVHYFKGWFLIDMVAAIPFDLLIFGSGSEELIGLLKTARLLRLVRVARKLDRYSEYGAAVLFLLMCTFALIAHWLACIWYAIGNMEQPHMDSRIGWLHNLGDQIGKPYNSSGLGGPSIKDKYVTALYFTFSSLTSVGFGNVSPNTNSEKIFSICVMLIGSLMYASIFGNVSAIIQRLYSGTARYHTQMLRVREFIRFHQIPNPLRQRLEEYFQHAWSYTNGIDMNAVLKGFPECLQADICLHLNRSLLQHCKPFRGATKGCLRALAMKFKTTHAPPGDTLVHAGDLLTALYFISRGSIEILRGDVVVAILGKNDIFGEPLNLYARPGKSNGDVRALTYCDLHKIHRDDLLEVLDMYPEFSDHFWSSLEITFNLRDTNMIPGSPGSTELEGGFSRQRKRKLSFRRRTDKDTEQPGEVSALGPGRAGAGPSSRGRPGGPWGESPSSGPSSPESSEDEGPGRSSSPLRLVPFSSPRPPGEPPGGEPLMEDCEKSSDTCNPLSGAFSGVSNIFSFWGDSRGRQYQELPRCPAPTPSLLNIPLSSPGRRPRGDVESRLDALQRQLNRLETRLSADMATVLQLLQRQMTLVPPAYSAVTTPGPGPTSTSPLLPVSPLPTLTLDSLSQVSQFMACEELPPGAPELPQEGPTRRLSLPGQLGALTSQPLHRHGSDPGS
PROCEDURE DETAILS: in vitro
VALUE KIND: inhibition at 10 µM

# SMILES TEXT, VALUE KIND, VALUE MEASURED
measured = [
    ("COc1cc(-c2cnc3nc(N4CCC(N5CCCCC5)CC4)sc3c2)ccn1", "inhibition at 10 µM", "98%"),
    ("CC(=O)Nc1ccc(-c2cnc3nc(N4CCC(N5CCCCC5)CC4)sc3c2)cn1", "inhibition at 10 µM", "20%"),
    ("Fc1ncccc1-c1cc2sc(N3CCC(N4CCCCC4)CC3)nc2cn1", "inhibition at 10 µM", "88%"),
    ("c1ncc(-c2cnc3nc(N4CCC(N5CCCCC5)CC4)sc3c2)cn1", "inhibition at 10 µM", "30%"),
    ("Clc1cc2sc(N3CCC(N4CCCCC4)CC3)nc2cn1", "inhibition at 10 µM", "59%"),
    ("COc1cc(-c2cc3sc(N4CCC(N5CCCCC5)CC4)nc3cn2)ccn1", "inhibition at 10 µM", "91%"),
    ("Nc1cnc(-c2cnc3nc(N4CCC(N5CCCCC5)CC4)sc3c2)cn1", "inhibition at 10 µM", "20%"),
    ("Fc1cc(-c2cc3sc(N4CCC(N5CCCCC5)CC4)nc3cn2)ccn1", "inhibition at 10 µM", "85%"),
]

----------
PROCEDURE DETAILS: Cmax in monkey
Type: ADME, organism-based, Macaca mulatta
TEST PARAMETERS: rhesus monkey, in vivo

# SMILES TEXT, Cmax [ng/mL]
measured = [
    ("Fc1ccc(-c2cc3sc(N4CCC(N5CCCCC5)CC4)nc3cn2)cn1", 33),
]

----------
PROCEDURE DETAILS: in vivo
TEST PARAMETERS: ICR, mouse, brain/plasma, po, 30 mg/kg

# SMILES TEXT, Kp at 96 h
measured = [
    ("Clc1cc2sc(N3CCC(N4CCCCC4)CC3)nc2cn1", 4.52),
]

----------
SYSTEM NAME: UniProt:Q9Y5N1
Sequence (Q9Y5N1 whole entry): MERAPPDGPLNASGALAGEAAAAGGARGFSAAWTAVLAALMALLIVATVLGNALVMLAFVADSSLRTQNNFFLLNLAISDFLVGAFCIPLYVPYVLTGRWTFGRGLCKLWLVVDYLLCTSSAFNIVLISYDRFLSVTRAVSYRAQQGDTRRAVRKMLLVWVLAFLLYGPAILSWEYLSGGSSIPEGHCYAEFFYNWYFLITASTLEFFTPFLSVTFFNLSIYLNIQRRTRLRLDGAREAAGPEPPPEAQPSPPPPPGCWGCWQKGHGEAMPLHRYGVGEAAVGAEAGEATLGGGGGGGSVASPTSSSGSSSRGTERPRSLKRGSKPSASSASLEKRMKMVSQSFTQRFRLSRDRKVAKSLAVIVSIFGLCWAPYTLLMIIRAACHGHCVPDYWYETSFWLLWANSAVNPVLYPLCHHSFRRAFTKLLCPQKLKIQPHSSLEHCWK
PROCEDURE DETAILS: Displacement of [3H]N-alpha-methylhistamine from human recombinant histamine H3 receptor expressed in HEK293 cells
VALUE KIND: Ki (nM)

# SMILES TEXT, VALUE KIND, VALUE MEASURED
rows = [
    ("CC(=O)c1cccc(-c2cnc3nc(N4CCC(N5CCCCC5)CC4)sc3c2)c1", "Ki", 33),
    ("Oc1ccc(-c2cc3sc(N4CCC(N5CCCCC5)CC4)nc3cn2)cc1", "Ki", 213),
    ("c1cnc2nc(N3CCC(N4CCCCC4)CC3)sc2c1", "Ki", 139),
    ("Nc1cnc2nc(N3CCC(N4CCCCC4)CC3)sc2c1", "Ki", 79),
    ("N#Cc1cnc2nc(N3CCC(N4CCCCC4)CC3)sc2c1", "Ki", 36),
    ("N#Cc1cc(-c2cc3sc(N4CCC(N5CCCCC5)CC4)nc3cn2)ccc1F", "Ki", 46),
    ("N#Cc1ccc(-c2cc3sc(N4CCC(N5CCCCC5)CC4)nc3cn2)cc1", "Ki", 126),
    ("Brc1cnc2nc(N3CCC(N4CCCCC4)CC3)sc2c1", "Ki", 141),
    ("COc1cccc(-c2cc3sc(N4CCC(N5CCCCC5)CC4)nc3cn2)c1", "Ki", 230),
    ("c1cc2sc(N3CCC(N4CCCCC4)CC3)nc2cn1", "Ki", 128),
    ("Clc1cnc2nc(N3CCC(N4CCCCC4)CC3)sc2c1", "Ki", 125),
    ("Nc1cc2sc(N3CCC(N4CCCCC4)CC3)nc2cn1", "Ki", 73),
    ("CC(=O)Nc1cc2sc(N3CCC(N4CCCCC4)CC3)nc2cn1", "Ki", 53),
    ("CC(=O)Nc1cnc2nc(N3CCC(N4CCCCC4)CC3)sc2c1", "Ki", 31),
    ("N#Cc1cc2sc(N3CCC(N4CCCCC4)CC3)nc2cn1", "Ki", 35),
    ("Oc1ccc(-c2cnc3nc(N4CCC(N5CCCCC5)CC4)sc3c2)cc1", "Ki", 59),
    ("Clc1ccc2nc(N3CCC(N4CCCCC4)CC3)sc2n1", "Ki", 1700),
    ("CC(=O)c1cccc(-c2cc3sc(N4CCC(N5CCCCC5)CC4)nc3cn2)c1", "Ki", 80),
    ("COc1cccc(-c2cnc3nc(N4CCC(N5CCCCC5)CC4)sc3c2)c1", "Ki", 140),
]
